test: Reversal of human ABCG2-mediated multidrug resistance in HEK293/R482 cells assessed as effect on topotecan-induced cytotoxicity by measuring topotecan IC50 at 2 uM after 72 hrs by CCK8 assay (Rvb = 201.31 +/- 25.89 nM)
recorded_endpoint: IC50 (nM)

record_smiles=C=CC(C)(C)c1cc(/C=C/C(=O)c2ccc(O)cc2)c(OC)cc1O recorded_endpoint=IC50 recorded_measurement=44

====

test: Reversal of ABCG2 (unknown origin)-mediated multidrug resistance in human H460-MX20 cells assessed as effect on topotecan-induced cytotoxicity by measuring topotecan IC50 at 1 uM after 72 hrs by MTT assay (Rvb = 1319.20 +/- 356.14 nM)
recorded_endpoint: IC50

record_smiles=C=CC(C)(C)c1cc(/C=C/C(=O)c2ccc(O)cc2)c(OC)cc1O recorded_measurement="144 nM"
